# procedure text: Spectroscopic properties of the target conjugates in PBS
# Type: physicochemical
# settings: at the absorption maximum
reported metric: ε (molar absorption coefficient)

Ask: # ε (molar absorption coefficient) lookup, item CC(OC(=O)Cc1ccccc1)c1c2ccc(=[N+]3CCCC3)cc-2oc2cc(N3CCCC3)ccc12.[I-] (centres unmarked) [Compound 41]
Reply: 70 000 M^−1cm^−1

Ask: # ε (molar absorption coefficient) lookup, item CC[N+]1=c2cc3c(cc2C(C)CC1(C)C)=C(C(C)OC(=O)Cc1ccccc1)c1cc2c4c(c1C3(C)C)CCCN4CCC2 (centres unmarked) [Compound 45]
Reply: 83 800 M^−1cm^−1

Ask: # ε (molar absorption coefficient) lookup, item CC(OC(=O)Cc1ccccc1)c1c2ccc(=O)cc-2oc2cc(N3CCCC3)ccc12 (centres unmarked) [Compound 39]
Reply: 22 700 M^−1cm^−1

Ask: # ε (molar absorption coefficient) lookup, item CCc1c2c(nc3ccc(OC(=O)N(C)CCN(C)C(=O)OC(C)c4c5ccc(=[N+]6CCCC6)cc-5oc5cc(N6CCCC6)ccc45)cc13)-c1cc3c(c(=O)n1C2)COC(=O)C3(O)CC.[I-] (mixture of isomers) [X1′-SN38]
Reply: 61 200 M^−1cm^−1

Ask: # ε (molar absorption coefficient) lookup, item CC(OC(=O)Cc1ccccc1)C1=C2C=CC(=[N+]3CCCC3)C=C2C(C)(C)c2cc(N3CCCC3)ccc21.[I-] (centres unmarked) [Compound 43]
Reply: 86 000 M^−1cm^−1

Ask: # ε (molar absorption coefficient) lookup, item CC(OC(=O)N1CCN(c2ccccc2)CC1)C1=C2C=CC(=[N+]3CCCC3)C=C2C(C)(C)c2cc(N3CCCC3)ccc21 (centres unmarked) [Compound 49]
Reply: 75 100 M^−1cm^−1

Ask: # ε (molar absorption coefficient) lookup, item CC(OCc1ccccc1)C1=C2C=CC(=[N+]3CCCC3)C=C2C(C)(C)c2cc(N3CCCC3)ccc21.[I-] (centres unmarked) [Compound 35]
Reply: 81 200 M^−1cm^−1

Ask: # ε (molar absorption coefficient) lookup, item CC(OC(=O)Oc1ccccc1)C1=C2C=CC(=[N+]3CCCC3)C=C2C(C)(C)c2cc(N3CCCC3)ccc21.[I-] (centres unmarked) [Compound 51]
Reply: 73 300 M^−1cm^−1
